Every entry's value here was drawn from ChEMBL document CHEMBL3091444.

# assaySummary: Clearance in dog at 3 mg/kg, iv
# Format: ADME, organism-based, Canis lupus familiaris
# Set-up: dose 3 mg/kg, route intravenous
# experimentalParameters: in vivo
recordedEndpoint: clearance (mL/min/kg)
Please state the figure in mL/min/kg; there is no need to write the unit.

// returns reported clearance for input "Cc1c(N2CCCC2=O)cccc1S(=O)(=O)N[C@@H](CNC(=O)c1ccc(Cl)s1)C(=O)N1CCN(C)CC1.Cl"
28.3

---

# assaySummary: Metabolic stability in human liver microsomes at 5 uM after 20 mins
# Format: ADME
# experimentalParameters: read-out: Stability
One threshold, 70%, splits the recorded remaining at 20 min, 5 µM values: lower ones are YES, equal or higher ones are NO.

Lab log: compare recorded remaining at 20 min, 5 µM with 70%; is it strictly lower for "Cc1c(N2CCOCC2=O)cccc1S(=O)(=O)N[C@@H](CNC(=O)c1ccc(Cl)s1)C(=O)N1CCN(C)CC1" ?
YES

Lab log: compare recorded remaining at 20 min, 5 µM with 70%; is it strictly lower for "CCc1c(N2CCOCC2=O)cccc1S(=O)(=O)N[C@@H](CNC(=O)c1ccc(Cl)s1)C(=O)N1CCC(OC)CC1" ?
NO

Lab log: compare recorded remaining at 20 min, 5 µM with 70%; is it strictly lower for "Cc1c(N2CCOCC2=O)cccc1S(=O)(=O)N[C@@H](CNC(=O)c1ccc(Cl)s1)C(=O)N1CCOC[C@@H]1C" ?
NO

Lab log: compare recorded remaining at 20 min, 5 µM with 70%; is it strictly lower for "O=C(NC[C@H](NS(=O)(=O)c1cccc(N2CCOCC2=O)c1Cl)C(=O)N1CCC(O)CC1)c1ccc(Cl)s1" ?
YES

Lab log: compare recorded remaining at 20 min, 5 µM with 70%; is it strictly lower for "Cc1c(N2CCCC2=O)cccc1S(=O)(=O)N[C@@H](CNC(=O)c1ccc(Cl)s1)C(=O)N1CCN(C)CC1.Cl" ?
YES

Lab log: compare recorded remaining at 20 min, 5 µM with 70%; is it strictly lower for "CCc1c(N2CCOCC2=O)cccc1S(=O)(=O)N[C@@H](CNC(=O)c1ccc(Cl)s1)C(=O)N1CCOC[C@@H]1C" ?
NO

Lab log: compare recorded remaining at 20 min, 5 µM with 70%; is it strictly lower for "CN1CCN(C(=O)[C@H](CNC(=O)c2ccc(Cl)s2)NS(=O)(=O)c2cccc(N3CCCC3=O)c2Cl)CC1" ?
YES

Lab log: compare recorded remaining at 20 min, 5 µM with 70%; is it strictly lower for "CCc1c(-c2ccccn2)cccc1S(=O)(=O)N[C@@H](CNC(=O)c1ccc(Cl)s1)C(=O)N1CCOC[C@@H]1C" ?
NO

Lab log: compare recorded remaining at 20 min, 5 µM with 70%; is it strictly lower for "CCc1c(N2CCOCC2=O)cccc1S(=O)(=O)N[C@@H](CNC(=O)c1ccc(Cl)s1)C(=O)N1CCC(O)CC1" ?
NO
